The reported numbers originate from patent US20150045540A1.

Target: Hepatocyte Growth Factor (HGF), human (human, UniProt P14210 32-728)
Sequence (P14210 32-728): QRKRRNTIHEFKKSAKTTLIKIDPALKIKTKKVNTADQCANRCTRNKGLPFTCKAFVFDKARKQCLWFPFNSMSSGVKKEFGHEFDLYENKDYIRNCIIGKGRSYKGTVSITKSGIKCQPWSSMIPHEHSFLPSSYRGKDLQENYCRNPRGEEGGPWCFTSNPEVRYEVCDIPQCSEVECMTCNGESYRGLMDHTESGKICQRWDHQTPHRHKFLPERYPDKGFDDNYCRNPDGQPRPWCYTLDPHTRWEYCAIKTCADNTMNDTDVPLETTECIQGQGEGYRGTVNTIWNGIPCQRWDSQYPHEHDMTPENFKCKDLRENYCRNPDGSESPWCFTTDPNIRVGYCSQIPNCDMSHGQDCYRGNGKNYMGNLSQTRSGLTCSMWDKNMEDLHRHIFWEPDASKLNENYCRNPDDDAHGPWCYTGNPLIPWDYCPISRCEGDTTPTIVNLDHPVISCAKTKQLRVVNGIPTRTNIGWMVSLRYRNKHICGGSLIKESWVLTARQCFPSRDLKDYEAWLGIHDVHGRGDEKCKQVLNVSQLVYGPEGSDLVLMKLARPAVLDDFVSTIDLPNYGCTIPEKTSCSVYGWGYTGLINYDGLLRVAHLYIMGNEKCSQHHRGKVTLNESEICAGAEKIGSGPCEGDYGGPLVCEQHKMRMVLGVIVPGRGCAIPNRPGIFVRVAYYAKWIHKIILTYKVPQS
Test: ELISA
PARAMETER: EC50 (nM)
Could you give me the number in nM? Just the number is fine.

Q. Assign EC50 to the following record: HC 2/SLC 6 (antibody) chain 1: GQGTLVTVSSASQPVLHQPPAMSSALGTTIRLTCTLRNDHDIGVYSVYWYQQRPGHPPRFLLRYFSQSDKSQGPQVPPRFSGSKDVARNRGYLSISELQPEDEAMYYCAMGARSRCWPRGFQSKHNSVTHVFGSGTQLTVLSQPKATPSVTLFPPSSEELQANKATLVCLMNDFYPGILTVTWKADGTPITQGVEMTTPSKQSNNKYAASSYLSLTPEQWRSRRSYSCQVMHEGSTVEKTVAPAECS chain 2: MSWAPVLLMLFVYCTGCGPQPVLHQPPAMSSALGTTIRLTCTLRNDHDIGVYSVYWYQQRPGHPPRFLLRYFSQSDKSQGPQVPPRFSGSKDVARNRGYLSISVTHVFGSGTQLTVLSQPKATQVQLVQ
A. 0.056

Q. Assign EC50 to the following record: HC 3/SLC 3 (antibody) chain 1: GQGTLVTVSSASTQPVLHQPPAMSSALGTTIRLTCTLRNDHDIGVYSVYWYQQRPGHPPRFLLRYFSQSDKSQGPQVPPRFSGSKDVARNRGYLSISELQPEDEAMYYCAMGARSRCWPRGFQSKHNSVTHVFGSGTQLTVLSQPKATPSVTLFPPSSEELQANKATLVCLMNDFYPGILTVTWKADGTPITQGVEMTTPSKQSNNKYAASSYLSLTPEQWRSRRSYSCQVMHEGSTVEKTVAPAECS chain 2: MSWAPVLLMLFVYCTGCGPQPVLHQPPAMSSALGTTIRLTCTLRNDHDIGVYSVYWYQQRPGHPPRFLLRYFSQSDKSQGPQVPPRFSGSKDVARNRGYLSISVTHVFGSGTQLTVLSQPQVQLVQ
A. 0.055

Q. Assign EC50 to the following record: HC 8/SLC 15 (antibody) chain 1: GQGTLVTVSSASTKGPSVQPVLHQPPAMSSALGTTIRLTCTLRNDHDIGVYSVYWYQQRPGHPPRFLLRYFSQSDKSQGPQVPPRFSGSKDVARNRGYLSISELQPEDEAMYYCAMGARSRCWPRGFQSKHNSVTHVFGSGTQLTVLSQPKATPSVTLFPPSSEELQANKATLVCLMNDFYPGILTVTWKADGTPITQGVEMTTPSKQSNNKYAASSYLSLTPEQWRSRRSYSCQVMHEGSTVEKTVAPAECS chain 2: MSWAPVLLMLFVYCTGCGPQPVLHQPPAMSSALGTTIRLTCTLRNDHDIGVYSVYWYQQRPGHPPRFLLRYFSQSDKSQGPQVPPRFSGSKDVARNRGYLSISVTHVFGSGTQLTVLSQPKATPSVTGGGGSQVQLVQ
A. 0.048

Q. Assign EC50 to the following record: HC 10/SLC 3 (antibody) chain 1: GQGTLVTVSSASTKGPSVFPQPVLHQPPAMSSALGTTIRLTCTLRNDHDIGVYSVYWYQQRPGHPPRFLLRYFSQSDKSQGPQVPPRFSGSKDVARNRGYLSISELQPEDEAMYYCAMGARSRCWPRGFQSKHNSVTHVFGSGTQLTVLSQPKATPSVTLFPPSSEELQANKATLVCLMNDFYPGILTVTWKADGTPITQGVEMTTPSKQSNNKYAASSYLSLTPEQWRSRRSYSCQVMHEGSTVEKTVAPAECS chain 2: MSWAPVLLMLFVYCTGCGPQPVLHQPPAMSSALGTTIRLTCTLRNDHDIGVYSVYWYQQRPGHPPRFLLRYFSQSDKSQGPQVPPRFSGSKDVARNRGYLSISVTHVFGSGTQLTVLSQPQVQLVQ
A. 0.074

Q. Assign EC50 to the following record: HC 6/SLC 15 (antibody) chain 1: GQGTLVTVSSASTKGPQPVLHQPPAMSSALGTTIRLTCTLRNDHDIGVYSVYWYQQRPGHPPRFLLRYFSQSDKSQGPQVPPRFSGSKDVARNRGYLSISELQPEDEAMYYCAMGARSRCWPRGFQSKHNSVTHVFGSGTQLTVLSQPKATPSVTLFPPSSEELQANKATLVCLMNDFYPGILTVTWKADGTPITQGVEMTTPSKQSNNKYAASSYLSLTPEQWRSRRSYSCQVMHEGSTVEKTVAPAECS chain 2: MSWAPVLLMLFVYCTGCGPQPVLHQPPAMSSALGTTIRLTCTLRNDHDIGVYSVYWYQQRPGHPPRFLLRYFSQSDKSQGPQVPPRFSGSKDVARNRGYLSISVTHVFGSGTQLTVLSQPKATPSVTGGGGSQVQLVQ
A. 0.05

Q. Assign EC50 to the following record: HC 6/SLC 9 (antibody) chain 1: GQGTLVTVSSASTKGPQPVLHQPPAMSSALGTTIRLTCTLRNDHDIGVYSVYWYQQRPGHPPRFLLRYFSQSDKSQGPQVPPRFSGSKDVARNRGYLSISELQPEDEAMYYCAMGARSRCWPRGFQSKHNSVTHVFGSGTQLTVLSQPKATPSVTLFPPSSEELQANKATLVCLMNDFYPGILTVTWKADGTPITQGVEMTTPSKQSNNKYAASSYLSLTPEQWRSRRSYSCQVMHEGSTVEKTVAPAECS chain 2: MSWAPVLLMLFVYCTGCGPQPVLHQPPAMSSALGTTIRLTCTLRNDHDIGVYSVYWYQQRPGHPPRFLLRYFSQSDKSQGPQVPPRFSGSKDVARNRGYLSISVTHVFGSGTQLTVLSQPKATPSVQVQLVQ
A. 0.047

Q. Assign EC50 to the following record: HC 6/SLC 7 (antibody) chain 1: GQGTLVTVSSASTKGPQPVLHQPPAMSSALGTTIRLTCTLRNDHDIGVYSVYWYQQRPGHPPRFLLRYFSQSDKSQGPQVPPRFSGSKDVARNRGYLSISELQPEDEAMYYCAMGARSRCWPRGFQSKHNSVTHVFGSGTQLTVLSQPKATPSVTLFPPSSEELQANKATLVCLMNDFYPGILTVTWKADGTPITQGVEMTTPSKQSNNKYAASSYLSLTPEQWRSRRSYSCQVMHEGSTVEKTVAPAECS chain 2: MSWAPVLLMLFVYCTGCGPQPVLHQPPAMSSALGTTIRLTCTLRNDHDIGVYSVYWYQQRPGHPPRFLLRYFSQSDKSQGPQVPPRFSGSKDVARNRGYLSISVTHVFGSGTQLTVLSQPKATPQVQLVQ
A. 0.056
